- PROTOCOL DESCRIPTION: soluble fraction after stress (log2 fold change); higher = more stays soluble; pooled small domains, quantitative proteomics;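 further: 20 min heating vs room temperature control held 20 min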
- ASSAY CONTEXT: stress: 75 degC
MEASURED PROPERTY: soluble fraction (log2)

primary_sequence=HMNSYKGELLVDDKNIRLDLYLFNQFNFFSRTKIKNYILKGNVLVNNNKTSPSYILKGSEKIYYDFSVS measured=-3.21
primary_sequence=HMTDLVVGLAGITLEPLRPAGKAEFNGSVVDVVSLGDYIEKSTAIQIVEIEGNRIVVHHGED measured=-0.865
primary_sequence=HMAPEVTVHDGSIVVRGHVGGVTVYDESGRQIASVQSRGAVAIPVPAGHTYLYIVKPEGKPAIKVRAAH measured=-0.265

Kindly consider the entry below.
Using the record for HMKTTKRERARAKLIQLLENEDRPAKEIYAGLGDIGVGSRTVEKVKKELQVTTYRSGGSWYWSLPKP , report its soluble fraction (log2).
-0.525

---

Property: soluble fraction (log2); scope: individual sequences
- PROTOCOL DESCRIPTION: soluble fraction after stress (log2 fold change); higher = more stays soluble; pooled small domains, quantitative proteomics
- ASSAY CONTEXT: stress: 75 degC

primary_sequence=HMEIDDPWLILGINAGSSIEIAQKAWKDLASQNHPDKLIANGVPKELLGMANEKLAIINGAYDKILKAHKI measured=-0.295
primary_sequence=HMVGVDMTVKEEVGKEGVTFTDLRPAGKVEIGNDIYDAVSNTGAFIQKGEKVKIIKYQAGQVYVEKLV measured=0.00838
primary_sequence=HMLVPWKSANLFKLVEPNFRLAERKIPMLPSADREKLQEIMSDMKDAIVDNDKMALMKLDEELTDFLFDFV measured=-1.49
primary_sequence=HMSGVIVPDIYNKTLAEAVASLEGEGFSTEKKEGYSDTVPKGNVMSQKPEAGTSAERGSTVTITISQGPQ measured=0.0579
primary_sequence=HMGFSKGKRDLIRMIKLAIRELADDNGRAQIEDVITRLVQEGHSRDEIRLQIDMFLRQGEAMEPKQGIIKL measured=-1.08

I am curious: what soluble fraction (log2) value has been reported for HMAVNSALVQRNWLIGYRIAEEELQGDNRAEYGASIIKKLAKELTAEYGKGYTKTNLYHFYSFYKT ?
-0.0399

Returns the measured soluble fraction (log2) for the input sequence. Input: HMGIDVSAFSDTALEVLRLQAAGYTTREIAQQLHITQRTVKYHASENYRKLDARNLVDAVQIAQSLHI
-1.5

Which soluble fraction (log2) is listed for HMKTLDATQRLKLNGEGIIVFNFGKYVDQPVVEIFKKERGYFAWMMSKDFSQQVKNIITKIHNEEILGK ?
-3.01

Bench note: what soluble fraction (log2) did HMVTQVDYGTFLTRIDEGKVKSVEIQDNQIAFTAIDEAGKENIYVTGKVNDPELVDRLLAADIEDFSQVIP show?
0.0911

Name the reported soluble fraction (log2) value associated with the sequence HMGVGITAPLAGNIFKIVVQPGDVVASGDVVLVLEAMKMETEIRAASGGTVSQVLVREGDAVDAGHTLITL
-2.85

I have this sequence here, HMSHLTKKQEEVLLFIRDYYEEEGRSPSYSDIQHHFGLKSKSSVQDYIGYLKKAGFLQKSVGSRAIELV , and I need its recorded soluble fraction (log2).
-2.52

Name the recorded soluble fraction (log2) for HMRRSDLVTQGDEILKRLQWNQQQAKDFLNQHLKASSRQQLTDEQLLNFNMLLEEQLVKSME .
0.426

So what's the measured soluble fraction (log2) for this one? HMRPFAMNLLEKHKADIEVWLKHPNMTNTQIKRLLEELGTSVSVSSIDRFISTSFPKLPKHT
-0.121

Find the recorded soluble fraction (log2) belonging to HMKFYIHEIIGFNAVDKVAGIVGKVININEDSPQKKLVVNYNGKEVFIPLVDEIVRKIDKQKNEVLITMP and report it.
0.00585

I have this sequence here, HMASSVKAPLPGVILDIKVKVGDTIKNGDTVVILEAMKMENNIHSDKDGVVKSIEVNKGDSVLEGATLLTI , and I need its recorded soluble fraction (log2).
0.33

Recorded soluble fraction (log2) of HMPGSGELSRRLELAIRDRTAVRVTAAAAGQERSFTLLPVAITSGRLRATDEQAGVQRTLPLSAIVAVEA , please.
-0.179

---

# soluble fraction (log2) values compiled below
- PROTOCOL DESCRIPTION: soluble fraction after stress (log2 fold change); higher = more stays soluble; pooled small domains, quantitative proteomics
- ASSAY CONTEXT: stress: 75 degC
Keep it simple and answer with nothing but the number.

Reference set, count: 6
primary_sequence=HMVTTTEAAKMLLVNAGHDVIKDGLTGASWASNTMKLADADGLLASVATKPNDALPRQYAAQMIYN measured_property="soluble fraction (log2)" measured=0.103
primary_sequence=HMNSGFEVFREVVNQGSFIGAANALGISAPAVSKQIKLLENRLGLLLLYRTTRNVTLTDIGKQLFDTLDNS measured_property="soluble fraction (log2)" measured=-1.98
primary_sequence=HMSDDSYLVALAEAYKNATSWDIRRQVLSIMTGVSSYKEISRYIPGLTQYRLSISNLHRLQYGRAAPVP measured_property="soluble fraction (log2)" measured=0.0264
primary_sequence=HMNPASVLDGLKITSFSPTRAIVAGPGGSRIVFDNEAVVLGGIEWDVHIQRNGIEFTSQGQTVLLLFDRS measured_property="soluble fraction (log2)" measured=-2.35
primary_sequence=HMSSVEEILQTLGGRIRTQRLAQGISQQVLADRAGLSLGAVRQLEGSGQSGLDTLVRVLFVLGIVDEL measured_property="soluble fraction (log2)" measured=-2.27
primary_sequence=HMVKGIVPNLIGKTQDEAKQMAEEYGFSIGTVSEKASDKPKGTVIEQSPKAGAKASGVTSINIVVSDGS measured_property="soluble fraction (log2)" measured=-0.121

Endpoint output: soluble fraction (log2) of HMIKSEERIQNIKEYILEFQFTYHRTPTMAQIAEAVGTVKSNVYKYLSEMEERGILTRNKREIEINDTIQ . Value?
-0.807

What value of soluble fraction (log2) has been reported for the following sequence? HMNQEQQSAVMSALKATLPDLEAALEARQFKESKQLLKTAQNQFQQLDGRNRRGFQARIQLLAGQFRELS
-0.179

// lookup soluble fraction (log2) for HMRARTLSTTGGESLLTLAESLYPDDDRARARFIEATAAANPKLFADIAALTRVLPAGTTLRMPDLRA
-0.0128

Bench note: what soluble fraction (log2) did HMERLKRVTLSLNQSNYSVTEIARRLQAITGIKDITVVEDEQAVYLKVDPATFDLTLAQQAV show?
-0.474

I have this sequence here, HMEVSTRQVRAALRDIIEAEDKKRPLSDEAITARLREQGLPVARRTVAKYREQMGILAARLRK , and I need its recorded soluble fraction (log2).
-0.662

---

- PROTOCOL DESCRIPTION: soluble fraction after stress (log2 fold change); higher = more stays soluble; pooled small domains, quantitative proteomics
- ASSAY CONTEXT: stress: 75 degC
soluble fraction (log2) values, listed per item
Answer with the value's number alone.

If you can, please state the reported soluble fraction (log2) value of HMQSRYALLAGMLRARITEGDWVPGSAIPAETVLAKEHGVALGTMRQAIALLVSQGLLERQHGRGTFVRS .
-1.58

Can you share its soluble fraction (log2)? I mean this sequence: HMLDPYNVLGVPRDAGMDEIKKAYRKLSRTYHPDANIDNPNKAQAEEKFKQIQEAYQQIVKERTE
-0.0272

Fill blank: measured soluble fraction (log2) of the sequence HMTSESWAEKSRSLAAAGLIVMGRDAQLKIEGLTNLDPLIEAATASSTRLLTGQTIDELLTIVP is ____.
-0.551

Any idea what its soluble fraction (log2) is? The sequence is HMAVKYTKDDFLYTEKPYEAIYDYKNDPFMHNLKIEQMAQQAAEVGVKTFKGLYKNYVKMREMQRGANV
0.0263

What does the record list as soluble fraction (log2) for HMKDRDISNAVLNILSKDSDHNYNYKQIASVLGVKDPFVRKRIVSVLAQLTKNGQLEEISRGKYQIKN ?
-0.478

Given HMGAVVSPMPGVILDIKVKEGDSVSEGQTVIILEAMKMENEIVSEFTGTVSAIRVKKGDTVDTDAVLVEI , state its recorded soluble fraction (log2).
-1.76

Given the sequence HMANLLNLREIPVANIRPELTMFLIPGENITQAFQTIRDQVVFTNKRLIVANVQGLTGKKVSYTSYPY , what is its reported soluble fraction (log2)?
-0.38

Data request, read-out soluble fraction (log2), for HMPAVVEFDVKPRGEVLVDGIWYGRIPELREVELRPGRHHLRVQNAGHPSLDLVVTLEPGERMTVTHTFA
-0.529

---

Entries annotated with measured soluble fraction (log2)
- PROTOCOL DESCRIPTION: soluble fraction after stress (log2 fold change); higher = more stays soluble; pooled small domains, quantitative proteomics
- ASSAY CONTEXT: stress: 75 degC
Please give the numeric answer without any surrounding text.

Worked examples follow.
primary_sequence=HMTSHYTVLGVKETDTIEMIRTHYRKLILQFHPDKNQHLTEEERKKLEVKVLQIREAYEKIKKEK measured=-0.433
primary_sequence=HMSSETTVPAVVGIKEDKARQLASEQGLRLRVKSREESADVEEGIIISQDPNSNTKVKKGDEIEVVVS measured=0.102
primary_sequence=HMNIYFNIEDAVANAVVENGKMSAAIYEKNVDTGEVAKLAEVSMPVMGGNINITKTLLTKALISQLP measured=-0.71

GET /values?readout=soluble fraction (log2)&item= HMVEPIEESISQLSLLLQSLYEDGKSEVSFEELIRSDRSRVSLFLALLFMAQRGNVYLEQEELFGDLRVKN
0.0329

Which soluble fraction (log2) is listed for HMNIDEIFLTKNEIYFSFEYQKKSQLDRYSKIISLDHRIDKNTAYAYANKKQFLNFINLNIDYKIIDNSF ?
-2.87

# get_value(readout='soluble fraction (log2)', item= HMPTPRVPMSKQRQILQLLQDGHLSTREIAAALHISKTSVGDIAKAARLAGLDWEAASKLSDEELSARIYK )
-0.36

Could you tell me which soluble fraction (log2) is on file for HMTDFNTFSDAIIAAVGSRASGLKVVDNAVSVMVDVSGLNEDQRVEIEADVRAAAEHAGAQSVRIMLT ?
-0.58

Please report the recorded soluble fraction (log2) for HMNSSLLGKRIKSLREDHDLTQKELSLMIGLTPKMISFYENNQRTPPLDILLKLAKIFEVSVDYLIGYA .
-0.615

Field request: soluble fraction (log2) | item: HMYHADLIGLEARSTAGDKLGEVNAVYNFGAGDLIEIKMTDGNLEMLPFTRQYVPTVSIKDGFIIVQM
-1.32

Which soluble fraction (log2) is reported for this sequence? HMDVLSPEEWIEFRTAYNNNRYISQYGSKGATIEDDYATRLAMIGGKESYYFLNDPRWTEPGYGNLK
-0.5

// lookup soluble fraction (log2) for HMADKGTITNQQEKILKALILFPEGASIEEIQKAADLGIDKRQFQRRLNTLIESGQINRTGKSRGTKYHTI
0.201
